System: KAI3 (IL-2 2.5 ng/mL);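 note: normalised to DMSO-only wells as negative and benzethonium chloride as positive control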
Assay: percent inhibition of viability; higher = more inhibition
Conditions: 72 h; 1000 nM
Could you please mark MET for values of percent inhibition of viability below 20% and NOT MET for values at or above it?

The examples below pair each entry with its known result.
CC(=O)[C@]1(O)Cc2c(O)c3c(c(O)c2[C@@H](O[C@H]2C[C@H](N)[C@H](O)[C@H](C)O2)C1)C(=O)c1ccccc1C3=O [Idarubicin] (max concentration tested 1000 nM) = NOT MET
O=C(CCBr)N1CCN(C(=O)CCBr)CC1 [Pipobroman] (max concentration tested 10000 nM) = MET
CO[C@@]12[C@H](COC(N)=O)C3=C(C(=O)C(C)=C(N)C3=O)N1C[C@@H]1N[C@@H]12 [Mitomycin C] (max concentration tested 10000 nM) = NOT MET

Proceed to the following item.
In: Please determine if CCc1c(C(=O)C(N)=O)c2c(OCC(=O)O)cccc2n1Cc1ccccc1 [Varespladib] (max concentration tested 10000 nM) is below 20% in terms of percent inhibition of viability.
Out: MET
